tested on: Escherichia coli TOP10; test: shrunken log2 fold change of peptide-encoding DNA abundance (4.5 h post-induction vs induction); higher = less antimicrobial activity (less host growth inhibition); details: time post-induction: 4.5 h; library: site-saturation at positions 5, 18, 19, 20
If the reported shrunken log2 fold change equals or exceeds -0.05, assign y. If not, assign n.

Could you verify whether the entry `RRIRIRPPRLPRPRPRPQCLPRP` shows shrunken log2 fold change of no less than -0.05?
n

Could you verify whether the entry `RRIRTRPPRLPRPRPRPPQVPRP` shows shrunken log2 fold change of no less than -0.05?
y

Could you verify whether the entry `RRIRSRPPRLPRPRPRPETFPRP` shows shrunken log2 fold change of no less than -0.05?
y

Could you verify whether the entry `RRIRFRPPRLPRPRPRPPYMPRP` shows shrunken log2 fold change of no less than -0.05?
n

Could you verify whether the entry `RRIRKRPPRLPRPRPRPMVMPRP` shows shrunken log2 fold change of no less than -0.05?
y

***
Could you verify whether the entry `RRIRNRPPRLPRPRPRPKFIPRP` shows shrunken log2 fold change of no less than -0.05?
n

Could you verify whether the entry `RRIRARPPRLPRPRPRPYGSPRP` shows shrunken log2 fold change of no less than -0.05?
y

Could you verify whether the entry `RRIRKRPPRLPRPRPRPSKDPRP` shows shrunken log2 fold change of no less than -0.05?
y

Could you verify whether the entry `RRIRCRPPRLPRPRPRPAVTPRP` shows shrunken log2 fold change of no less than -0.05?
y

Could you verify whether the entry `RRIRHRPPRLPRPRPRPWHQPRP` shows shrunken log2 fold change of no less than -0.05?
n

Could you verify whether the entry `RRIRKRPPRLPRPRPRPGIQPRP` shows shrunken log2 fold change of no less than -0.05?
y

Could you verify whether the entry `RRIRNRPPRLPRPRPRPPWMPRP` shows shrunken log2 fold change of no less than -0.05?
y

Could you verify whether the entry `RRIRHRPPRLPRPRPRPWQTPRP` shows shrunken log2 fold change of no less than -0.05?
y

Could you verify whether the entry `RRIRSRPPRLPRPRPRPWTWPRP` shows shrunken log2 fold change of no less than -0.05?
n

---

tested on: Escherichia coli TOP10; experiment: shrunken log2 fold change of peptide-encoding DNA abundance (4.5 h post-induction vs induction); higher = less antimicrobial activity (less host growth inhibition); settings: time post-induction: 4.5 h; library: site-saturation at positions 5, 18, 19, 20
Reported metric: shrunken log2 fold change
One number for each entry.

Observe how each entry below is paired with its result.
# return recorded shrunken log2 fold change for entry `RRIRFRPPRLPRPRPRPEFSPRP`
0.0686

# return recorded shrunken log2 fold change for entry `RRIRYRPPRLPRPRPRPFYWPRP`
-1.7

# return recorded shrunken log2 fold change for entry `RRIRVRPPRLPRPRPRPYHCPRP`
-0.157

# return recorded shrunken log2 fold change for entry `RRIRLRPPRLPRPRPRPLITPRP`
-0.238

# return shrunken log2 fold change for each item in the list
1. RRIRQRPPRLPRPRPRPAMFPRP
2. RRIRYRPPRLPRPRPRPMRWPRP
3. RRIRARPPRLPRPRPRPAHRPRP
4. RRIRLRPPRLPRPRPRPVGRPRP
5. RRIRMRPPRLPRPRPRPPPHPRP
6. RRIRHRPPRLPRPRPRPEGPPRP
7. RRIRMRPPRLPRPRPRPQGGPRP

[0.0399, 0.448, 0.326, 0.215, 1.62, -0.0401, 0.631]

# return shrunken log2 fold change for each item in the list
1. RRIRIRPPRLPRPRPRPLRCPRP
2. RRIRCRPPRLPRPRPRPFLCPRP
3. RRIRLRPPRLPRPRPRPYDSPRP
4. RRIRLRPPRLPRPRPRPRMMPRP

1: -0.14; 2: -0.786; 3: 0.00122; 4: 0.189

# return shrunken log2 fold change for each item in the list
1. RRIRDRPPRLPRPRPRPVSFPRP
2. RRIRHRPPRLPRPRPRPRFIPRP
3. RRIRRRPPRLPRPRPRPRYQPRP
4. RRIRRRPPRLPRPRPRPHLKPRP
5. RRIRSRPPRLPRPRPRPIVLPRP
6. RRIRYRPPRLPRPRPRPKNWPRP
7. RRIRERPPRLPRPRPRPMVEPRP

-0.191
-0.135
0.0511
-0.0915
-0.639
-0.3
-0.0932

# return shrunken log2 fold change for each item in the list
1. RRIRNRPPRLPRPRPRPNRTPRP
2. RRIRRRPPRLPRPRPRPMLGPRP
3. RRIRIRPPRLPRPRPRPRCEPRP
4. RRIRRRPPRLPRPRPRPCEDPRP
5. RRIRSRPPRLPRPRPRPEYFPRP

[-0.0201, 0.15, -0.0571, 0.0155, -1.04]

---

tested on: Escherichia coli TOP10; assay: shrunken log2 fold change of peptide-encoding DNA abundance (4.5 h post-induction vs induction); higher = less antimicrobial activity (less host growth inhibition); details: time post-induction: 4.5 h; library: site-saturation at positions 5, 18, 19, 20
If the reported shrunken log2 fold change equals or exceeds -0.08, assign true (1). If not, assign false (0).

As a guide, the following entries are already answered.
Could you verify whether the entry `RRIRGRPPRLPRPRPRPYQEPRP` shows shrunken log2 fold change of no less than -0.08?
true (1)

Could you verify whether the entry `RRIRIRPPRLPRPRPRPRKSPRP` shows shrunken log2 fold change of no less than -0.08?
false (0)

Could you verify whether the entry `RRIRERPPRLPRPRPRPLTQPRP` shows shrunken log2 fold change of no less than -0.08?
false (0)

Could you verify whether the entry `RRIRDRPPRLPRPRPRPLVNPRP` shows shrunken log2 fold change of no less than -0.08?
true (1)

Could you verify whether the entry `RRIRMRPPRLPRPRPRPVDFPRP` shows shrunken log2 fold change of no less than -0.08?
true (1)

We now examine a further sequence.
Could you verify whether the entry `RRIRTRPPRLPRPRPRPVQIPRP` shows shrunken log2 fold change of no less than -0.08?
true (1)

---

test system: Escherichia coli TOP10; assay: shrunken log2 fold change of peptide-encoding DNA abundance (4.5 h post-induction vs induction); higher = less antimicrobial activity (less host growth inhibition); settings: time post-induction: 4.5 h; library: site-saturation at positions 5, 18, 19, 20
If the reported shrunken log2 fold change equals or exceeds -0.06, assign Satisfied. If not, assign Not satisfied.

As a guide, the following entries are already answered.
Could you verify whether the entry `RRIRERPPRLPRPRPRPVCAPRP` shows shrunken log2 fold change of no less than -0.06?
Satisfied

Could you verify whether the entry `RRIRRRPPRLPRPRPRPHTTPRP` shows shrunken log2 fold change of no less than -0.06?
Not satisfied

Could you verify whether the entry `RRIRTRPPRLPRPRPRPTYVPRP` shows shrunken log2 fold change of no less than -0.06?
Not satisfied

Could you verify whether the entry `RRIRLRPPRLPRPRPRPLSDPRP` shows shrunken log2 fold change of no less than -0.06?
Satisfied

Could you verify whether the entry `RRIRERPPRLPRPRPRPWMQPRP` shows shrunken log2 fold change of no less than -0.06?
Not satisfied

We now examine a further sequence.
Could you verify whether the entry `RRIRFRPPRLPRPRPRPPIDPRP` shows shrunken log2 fold change of no less than -0.06?
Satisfied

---

tested on: Escherichia coli TOP10; test: shrunken log2 fold change of peptide-encoding DNA abundance (4.5 h post-induction vs induction); higher = less antimicrobial activity (less host growth inhibition); settings: time post-induction: 4.5 h; library: site-saturation at positions 5, 18, 19, 20;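 also: peptides expressed intracellularly from a pBAD plasmid library in pooled LB shake-flask culture, induced with 0.3% L-arabinose, DNA abundance read by NGS, three biological replicates, DESeq2 with apeglm shrinkage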
Hi there, I'd appreciate the recorded shrunken log2 fold change for every entry that follows.
Numbers only.

Observe how each entry below is paired with its result.
# return recorded shrunken log2 fold change for entry `RRIRPRPPRLPRPRPRPGMDPRP`
-0.00631

# return recorded shrunken log2 fold change for entry `RRIRKRPPRLPRPRPRPNPFPRP`
1.91

# return recorded shrunken log2 fold change for entry `RRIRRRPPRLPRPRPRPFVNPRP`
-0.049

# return shrunken log2 fold change for each item in the list
1. RRIRARPPRLPRPRPRPQKVPRP
2. RRIRKRPPRLPRPRPRPKDAPRP
3. RRIRYRPPRLPRPRPRPGWIPRP
4. RRIRLRPPRLPRPRPRPSDEPRP

1: 0.0196; 2: -0.0585; 3: -0.328; 4: -0.255

# return shrunken log2 fold change for each item in the list
1. RRIRERPPRLPRPRPRPKHNPRP
2. RRIRWRPPRLPRPRPRPSQQPRP
3. RRIRFRPPRLPRPRPRPHNAPRP
4. RRIRYRPPRLPRPRPRPNSRPRP
5. RRIRNRPPRLPRPRPRPSIGPRP
6. RRIRYRPPRLPRPRPRPAHPPRP

-0.587
-0.002
-0.54
-0.156
-0.109
-0.0595

# return shrunken log2 fold change for each item in the list
1. RRIRSRPPRLPRPRPRPLEVPRP
2. RRIRFRPPRLPRPRPRPCNSPRP

1: -0.103; 2: -0.0848
